These data points were gathered from PubChem BioAssay AID1159580.

Assay: chemical genetic growth profiling, strain panel (AID 1159580);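 further: tested at 20 µM; growth read once vehicle control cultures reached saturation at 30 °C; 1 = growth at the plate median or of vehicle wells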
Settings: S. cerevisiae deletion strains, growth OD, locus YDR318W, strain mcm21, stronger effect = lower value
Out of some 5,500 compounds screened, about 2,000 (36%) were called active. Inconclusive results (about 18%) are left out. The list shows a part of the results.
MEASURED PROPERTY: normalized growth
Answers are plain numbers.

Worked examples follow.
* CCC1(C)CC(=O)NC1=O (configuration not stated) | 1.01
* O=C(O)c1cc(=O)c2cc(Cl)ccc2[nH]1 | 1.03

Batch request: normalized growth per item, same order as input.
1. O=C(O)c1cc(=O)c2ccc(Cl)cc2[nH]1
2. CCCCOc1ccc(CC(=O)NO)cc1
3. N#Cc1c(Cl)c(Cl)c(Cl)c(C#N)c1Cl
4. C1CCc2nnnn2CC1
5. CC(C(=O)O)c1ccc2c(c1)[nH]c1ccc(Cl)cc12 (configuration not stated)
6. NC[C@@H]1O[C@H](O[C@@H]2[C@@H](CO)OC(O[C@@H]3[C@@H](O)[C@H](N)C[C@H](N)[C@H]3OC3O[C@H](CN)[C@@H](O)[C@H](O)[C@H]3N)[C@@H]2O)[C@H](N)[C@@H](O)[C@@H]1O (some centres not stated)
7. CC(C)(C)CC(C)(C)c1ccc(OCCOCC[N+](C)(C)Cc2ccccc2)cc1

1: 0.989; 2: 1.01; 3: 0.975; 4: 1.02; 5: 0.972; 6: 1.01; 7: 0.997

For each listed entry, give its normalized growth.
1. CCc1cccc(C)c1N(C(=O)CCl)C(C)COC (configuration not stated)
2. CCC1(c2ccc(N)cc2)CCC(=O)NC1=O (configuration not stated)
3. CC1(C)S[C@@H]2[C@H](NC(=O)[C@H](NC(=O)N3CCNC3=O)c3ccccc3)C(=O)N2C1C(=O)O (some centres not stated)

[1.01, 0.991, 0.988]

---

Assay: chemical genetic growth profiling, strain panel (AID 1159580);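 further: tested at 20 µM; growth read once vehicle control cultures reached saturation at 30 °C; 1 = growth at the plate median or of vehicle wells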
Settings: S. cerevisiae deletion strains, growth OD, locus YKL190W, strain CNB1, stronger effect = lower value
In all, about 5,500 compounds went through this assay and about 2,000 (36%) were called active. Not shown: some 18% with an inconclusive outcome. The list shows a part of the results.
MEASURED PROPERTY: normalized growth
Give bare numbers.

- c1ccc(CC2=NCCN2)cc1: 0.998
- COc1ccc(C(=O)c2ccccc2)c(O)c1: 0.913
- CO[C@H]1C[C@H](O[C@H]2[C@H](C)[C@@H](OC3O[C@H](C)C[C@H](N(C)C)[C@H]3O)[C@@H](C)C[C@]3(CO3)C(=O)[C@H](C)[C@@H](O)[C@@H](C)[C@@H](C)OC(=O)[C@@H]2C)O[C@@H](C)[C@@H]1O (some centres not stated): 1
- COc1ccc(C(=O)c2ccccc2O)c(O)c1: 0.963
- C=CCc1ccc2c(c1)OCO2: 1.01
- O=C(/C=C/C=C/c1ccc2c(c1)OCO2)N1CCCCC1: 0.974

Provide normalized growth for all items below, preserving their order.
1. CC(=O)[C@H]1CCC2C3C[C@H](C)C4=CC(=O)CC[C@]4(C)C3[C@@H](O)C[C@@]21C (some centres not stated)
2. CC1(C)C2CC[C@]3(C)C(C(=O)C=C4[C@@H]5C[C@@](C)(C(=O)O)CC[C@]5(C)CC[C@]43C)[C@@]2(C)CC[C@@H]1OC(=O)CCC(=O)O (some centres not stated)
3. CCc1cccc(C)c1N(C(=O)CCl)C(C)COC (configuration not stated)
4. OCC(O)Cc1ccc2c(c1)OCO2 (configuration not stated)
5. CCC(C(N)=O)c1ccccc1 (configuration not stated)

[0.989, 0.991, 1.02, 1.02, 1.02]

Noted for CC(SCc1ccccc1)C(=O)O (configuration not stated) : its normalized growth reads 1

---

Field: normalized growth. Provide a value for each of the molecules that follow.
Assay: chemical genetic growth profiling, strain panel (AID 1159580);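 further: tested at 20 µM; growth read once vehicle control cultures reached saturation at 30 °C; 1 = growth at the plate median or of vehicle wells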
Conditions: S. cerevisiae deletion strains, growth OD, locus YLR058C, strain SHM2, stronger effect = lower value
About 2,000 (36%) of roughly 5,500 compounds were called active. Not shown: some 18% with an inconclusive outcome. This is one part of the list.
Give bare numbers.

Worked cases, normalized growth given:
• COc1ccc2cc1Oc1ccc(cc1)C[C@H]1c3cc(c(OC)cc3CCN1C)Oc1c(OC)c(OC)cc3c1[C@H](C2)N(C)CC3 = 1.01
• O=C(O)c1cc(=O)c2cc(Cl)ccc2[nH]1 = 1.01
• CCCCOc1ccc(OCCCN2CCOCC2)cc1 = 0.908
• O=C(O)c1cc(=O)c2ccc(Cl)cc2[nH]1 = 1.02
• COc1ccc(CC2c3cc(OC)c(OC)cc3CCN2C)cc1OC (stereo unspecified) = 0.973

Please give normalized growth for each item listed below.
1. CCc1nc(N)nc(N)c1-c1ccc(Cl)cc1
2. CC1(C)C2CC[C@]3(C)C(C(=O)C=C4[C@@H]5C[C@@](C)(C(=O)O)CC[C@]5(C)CC[C@]43C)[C@@]2(C)CC[C@@H]1OC(=O)CCC(=O)O (stereo partly specified)
3. CC(C)N(C(=O)CCl)c1ccccc1
4. O=C(O)c1ccccc1OP(=O)(O)O

1: 1.01; 2: 0.986; 3: 1.03; 4: 1.02

Your task in this section: give normalized growth for each listed record.
1. S=C=NCc1ccccc1
2. CCCCOc1ccc(C(=O)CCN2CCCCC2)cc1
3. CC1(C)S[C@@H]2[C@H](NC(=O)[C@H](NC(=O)N3CCNC3=O)c3ccccc3)C(=O)N2C1C(=O)O (stereo partly specified)
4. OC(CCN1CCCCC1)(c1ccccc1)c1ccccc1

0.0484
0.85
0.989
1.01

Batch lookup, normalized growth per entry.
1. NC(=O)N1c2ccccc2CC(=O)c2ccccc21
2. CC1(C)C2CC[C@]3(C)C(C(=O)C=C4[C@@H]5C[C@@](C)(C(=O)O)CC[C@]5(C)CC[C@]43C)[C@@]2(C)CC[C@@H]1O (stereo partly specified)

[0.988, 1.01]

Please give normalized growth for each item listed below.
1. COc1cc(OC)c2c(c1)OC(c1ccc(OC)c(OC)c1)C(O)C2 (stereo unspecified)
2. CO[C@H]1C[C@H](O[C@H]2[C@H](C)[C@@H](OC3O[C@H](C)C[C@H](N(C)C)[C@H]3O)[C@@H](C)C[C@]3(CO3)C(=O)[C@H](C)[C@@H](O)[C@@H](C)[C@@H](C)OC(=O)[C@@H]2C)O[C@@H](C)[C@@H]1O (stereo partly specified)

1: 1.03; 2: 1.01

Hi team, please reply with normalized growth for each item in this list.
1. C=C(C)/C=C1/C=CC(=O)C(C)=C1
2. CCc1cccc(C)c1N(C(=O)CCl)C(C)COC (stereo unspecified)
3. CCc1ccc(CCOc2ccc(CC3SC(=O)NC3=O)cc2)nc1 (stereo unspecified)
4. Cn1cc[nH]c1=S

[0.755, 1.01, 1.01, 1]

---

Test: chemical genetic growth profiling, strain panel (AID 1159580);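 further: tested at 20 µM; growth read once vehicle control cultures reached saturation at 30 °C; 1 = growth at the plate median or of vehicle wells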
Conditions: S. cerevisiae deletion strains, growth OD, locus YHR030C, strain SLT2
Hit rate of the full screen: of about 5,500 compounds, about 2,000 (36%) were called active. Another 18% or so got no clear call; they are omitted. No stated cut-off is given here; in the data, active means normalized growth mostly below about 0.91 (no sharp cut-off); inconclusive means no clear call, values can overlap the other calls; inactive means mostly above about 0.92. This is one part of the list.
In this exercise, the only acceptable responses are active, inactive

• CC(C)(C)C1=NN(c2nc3ccc(Cl)cc3s2)C(=O)C1 = active
• COc1cc2c3cc1Oc1c(OC)c(OC)cc4c1[C@@H](Cc1cccc(c1)Oc1ccc(c(O)c1)C[C@@H]3N(C)CC2)N(C)CC4 = inactive
• CO[C@H]1C[C@H](O[C@H]2[C@H](C)[C@@H](OC3O[C@H](C)C[C@H](N(C)C)[C@H]3O)[C@@H](C)C[C@]3(CO3)C(=O)[C@H](C)[C@@H](O)[C@@H](C)[C@@H](C)OC(=O)[C@@H]2C)O[C@@H](C)[C@@H]1O (some centres undefined) = inactive

Called result for CC(=O)O[C@H]1C(=O)[C@@]2(C)C([C@H](OC(=O)c3ccccc3)[C@]3(O)C[C@H](O)C(C)=C1C3(C)C)[C@]1(OC(C)=O)CO[C@@H]1C[C@@H]2O (some centres undefined)
inactive

Please let me know the test result on file for `CCOC(=O)c1ncn2c1CN(C)C(=O)c1cc(F)ccc1-2` .
inactive

Identify the outcome logged in this assay for the compound shown: CCC(C)c1ccccc1NC(=O)c1cc2cccc([N+](=O)[O-])c2[nH]1 (centres undefined)
active

Which outcome was entered for the compound `OCCN(CCO)c1nc(N2CCCCC2)c2nc(N(CCO)CCO)nc(N3CCCCC3)c2n1` in this test?
inactive

What was the test verdict on `COc1ccc(S(=O)(=O)Nc2cc(C)c(C)cc2[N+](=O)[O-])c(OC)c1` ?
inactive

Field: outcome | Entry: `Cc1c(Cl)cccc1NC(=S)N1CCCN(c2nc3ccc(Cl)cc3s2)CC1`
active

I would be grateful if you could indicate the recorded call for `O=C(Nc1ccccc1C(=O)Nc1ccc(Br)cc1)c1ccccc1` .
inactive

Assay result, entry `O=C(C=C(O)c1ccc(Br)cc1)C(=O)Nc1ccccc1` — outcome?
active

Any idea what this test logged for `COc1ccc(-c2coc3c(O)c(O)c(OC)cc3c2=O)cc1` ?
inactive

Entry `Cc1c(Cl)cccc1NC(=S)N1CCCN(c2ccc(C(F)(F)F)cc2[N+](=O)[O-])CC1` : call = ?
active

Name the outcome recorded for `COc1ccc2cc1Oc1ccc(cc1)C[C@H]1c3c(cc4c(c3Oc3cc5c(cc3OC)CCN(C)[C@@H]5C2)OCO4)CCN1C` in the assay.
inactive
